organism: Rattus norvegicus; experiment: Selectivity ratio of ID50 in liver and heart
Listing of entries alongside the reported Ratio.
Provide a numeric answer; units are not to be included.

N[C@@H](Cc1cc(I)c(Oc2ccc(O)c(Cn3ccc(=O)cc3)c2)c(I)c1)C(=O)O
208

*Q* Give me measured Ratio, please, for this molecule: N[C@@H](Cc1cc(I)c(Oc2ccc(O)c(Cc3ccc(O)c(Cl)c3)c2)c(I)c1)C(=O)O
*A* 1

*Q* Specify reported Ratio for the molecule shown: CC(C)c1cc(Cc2cc(Oc3c(I)cc(C[C@H](N)C(=O)O)cc3I)ccc2O)ccc1O
*A* 1

----------
Target: Thyroid hormone receptor beta (Rattus norvegicus)
Sequence (whole entry): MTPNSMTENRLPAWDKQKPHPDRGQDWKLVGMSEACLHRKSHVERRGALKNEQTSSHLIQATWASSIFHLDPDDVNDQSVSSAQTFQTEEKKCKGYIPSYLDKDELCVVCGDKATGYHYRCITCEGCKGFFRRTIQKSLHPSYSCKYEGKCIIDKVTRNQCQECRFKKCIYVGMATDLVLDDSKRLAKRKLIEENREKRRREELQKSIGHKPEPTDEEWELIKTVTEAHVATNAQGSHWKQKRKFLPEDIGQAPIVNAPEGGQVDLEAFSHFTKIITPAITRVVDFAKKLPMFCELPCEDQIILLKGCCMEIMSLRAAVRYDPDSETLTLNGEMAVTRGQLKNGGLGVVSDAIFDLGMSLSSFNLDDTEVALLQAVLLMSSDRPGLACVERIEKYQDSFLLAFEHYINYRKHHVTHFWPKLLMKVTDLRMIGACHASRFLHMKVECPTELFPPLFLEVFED
Experiment: Binding affinity to the receptor was determined in nuclei of heart in vivo 1 hour after intravenous administration relative to 3,5,3' triiodothyronine receptor
Listed here: items and their measured Relative ID50.
Please reply with the value in numeric form only.

Consider the reported Relative ID50 for these compounds:
N#Cc1ccc(Cc2cc(Oc3c(I)cc(C[C@H](N)C(=O)O)cc3I)ccc2O)cc1
0.22
N[C@@H](Cc1cc(I)c(Oc2ccc(O)c(Cc3ccc(O)nc3)c2)c(I)c1)C(=O)O
0.2
N[C@@H](Cc1cc(I)c(Oc2ccc(O)c(Cc3ccccc3O)c2)c(I)c1)C(=O)O
0.024
N[C@@H](Cc1cc(I)c(Oc2ccc(O)c(Cc3ccc(F)cc3)c2)c(I)c1)C(=O)O
8.6

*Q* Check the records and state Relative ID50 for N[C@@H](Cc1cc(I)c(Oc2ccc(O)c(Cc3ccccc3)c2)c(I)c1)C(=O)O
*A* 0.3
